From: ChEMBL document CHEMBL6127049

tested on: Rattus norvegicus; test: Antihyperlipidemic effect in STZ-induced type 2 diabetes male Wistar albino rat model assessed as LDL level at 20 mg/kg, po measured after 4 weeks (reference value: 184.65 +/- 4.57 mg/dL); type: functional
Would you kindly list Activity for each of these compounds?
One number for each entry, in mg/dL.

Solved entries (count: 4):
- CC1=C(C(=O)O)C(c2ccc(F)c(F)c2)N=C(N)N1C(=O)CN1CCn2c(nnc2C(F)(F)F)C1 (stereo not given): 105.65
- CC1=C([N+](=O)[O-])C(c2ccc(F)c(F)c2)N=C(N)N1C(=O)CN1Cc2cn(S(C)(=O)=O)nc2C1 (stereo not given): 114.54
- CC1=C([N+](=O)[O-])C(c2ccc(F)c(F)c2)N=C(N)N1C(=O)CN1CCn2c(nnc2C(F)(F)F)C1 (stereo not given): 115.89
- CC1=C(C(=O)O)C(c2ccc(F)c(F)c2)N=C(N)N1C(=O)CN1CCCC(N)C1 (stereo not given): 107.12

stdin: What measured Activity is associated with CC1=C(C(=O)O)C(c2ccc(F)c(F)c2)N=C(N)N1C(=O)CN1Cc2cn(S(C)(=O)=O)nc2C1 (stereo not given) on Rattus norvegicus?
stdout: 114.67
